The measured values listed here are drawn from ChEMBL document CHEMBL1201862.

- Test system: K562
- measurementNotes: NCI tumour cell line growth inhibition, 48 h
Active and inactive are the calls of the source. Cut-off read from the data, not from the text of the source: active = GI50 up to about 1.1 µM and inactive = higher.
Outcome codes: T for active, F for inactive

# compound, classLabel
measured = [
    ("COC(=O)C1(C(=O)OC)N=C(C)OC1C(C)C (stereo not given)", "F"),
    ("CC(C)C(=O)/C=C/c1ccc(Cl)cc1", "F"),
    ("CCCCc1c2c(nc3c1CC/C(=C\\c1ccccc1)C3=O)CCCC2", "F"),
    ("Cc1c2cnccc2c(C)c2c1c1ccccc1n2CC1CO1 (stereo not given)", "T"),
    ("Cc1csc(CP(=O)(OC(C)C)OC(C)C)n1", "F"),
    ("Cc1ccc(S(=O)(=O)Nc2cccc3c(=O)nc[nH]c23)cc1", "F"),
    ("C=C1CC2(OC1=O)c1ccccc1CCc1ccccc12", "F"),
    ("CCCC(OCC)(OCC)OCC", "F"),
    ("COc1ccc(CNc2cc(OC)cc(OC)c2)cc1", "F"),
    ("COc1ccc2cc(C(=O)O)ccc2c1OC", "F"),
    ("O=C1C2C3CC4C5C3C1C5C1(SCCS1)C42 (stereo not given)", "F"),
    ("CN1CC=C(C#CC(C)(C)O)CC1", "F"),
    ("[N-]=[N+]=NCC1OC(n2cnc3c(N)ncnc32)C2OC12 (stereo not given)", "F"),
    ("CCOC(=O)C(=O)Nc1cccc(Cl)c1C", "F"),
    ("CCOC(=O)c1sc2nc(SC)nc3c2c1NCN3c1ccc(F)c(F)c1", "F"),
    ("CSC1(C)CC2C(CC1N1CCOCC1)C2(C)C (stereo not given)", "F"),
    ("S=c1sc2c(s1)SCc1cccc(n1)CSc1sc(=S)sc1SCc1cccc(n1)CS2", "F"),
    ("CCCCNC(=O)OCCN=c1c2ccccc2ccc2ccccc12", "F"),
    ("CCCCCCCCCCCCCC/C(C(=O)O)=C(\\C)C(=O)O", "F"),
    ("Cc1nc(=O)[nH]c(NCCNCCO)c1C(=O)Nc1cccc2cc3ccccc3cc12", "F"),
    ("COc1ccc(-c2cc(-c3cc(C)ccc3O)nc(O)n2)cc1", "F"),
    ("Cc1nc2ccccc2c(=O)n1Nc1ccc(C(=O)O)cc1", "F"),
    ("Oc1nc(S)nc2c1CN(CCCN1CCOCC1)CN2", "F"),
    ("COc1cc(O)c2c(=O)cc(C3(O)C=CC(=O)C=C3)oc2c1", "T"),
    ("COc1cc2ccc3c4cc(OC)c(OC)cc4c[n+](C)c3c2cc1O", "F"),
]

====

- Test system: NCI/ADR-RES
- measurementNotes: NCI tumour cell line growth inhibition, 48 h
Calls of active or inactive are those of the source. No stated cut-off is given here; in the data, active = GI50 up to about 1.1 µM and inactive = higher.

# compound, GI50
records = [
    ("COc1cc(-c2cc(OC)c(OC)c3ccc(Br)cc23)c2cc(Br)ccc2c1OC", "33.7 µM (inactive)"),
    ("O=C(O)[C@@H]1C[C@@H](O)CN1", "> 100 µM (inactive)"),
    ("Cc1ccc2nc3[nH]nc(N)c3nc2c1", "> 100 µM (inactive)"),
    ("COCc1nc(C#N)c(N)o1", "> 10 µM (inactive)"),
    ("CCOC(=O)C1C(C)C2(C#N)C(=N)OC1(C)C2(C#N)C#N (centres undefined)", "> 100 µM (inactive)"),
    ("O=C1NC(=S)NC(=O)C1C(c1ccc([N+](=O)[O-])cc1)C1C(=O)NC(=S)NC1=O.c1ccncc1", "> 100 µM (inactive)"),
    ("COc1ccc(OC)c([N+](=O)[O-])c1-c1nc2sc(Cl)cn2c1/C=N/N=C(N)N", "> 100 µM (inactive)"),
    ("O=[N+]([O-])c1cccc(/N=N/c2c(O)ccc3ccccc23)c1", "70 µM (inactive)"),
    ("Cc1cc(NS(=O)(=O)c2ccc(NC(NC(=O)OC(C)C)(C(F)(F)F)C(F)(F)F)cc2)nc(C)n1", "> 100 µM (inactive)"),
]
